Some molecules, each annotated with its measured log10 IC50.
Biological target: Glutamate NMDA receptor; GRIN1/GRIN2A (Homo sapiens, UniProt Q05586+Q12879)
Sequence (Q12879 whole entry, other chains not shown): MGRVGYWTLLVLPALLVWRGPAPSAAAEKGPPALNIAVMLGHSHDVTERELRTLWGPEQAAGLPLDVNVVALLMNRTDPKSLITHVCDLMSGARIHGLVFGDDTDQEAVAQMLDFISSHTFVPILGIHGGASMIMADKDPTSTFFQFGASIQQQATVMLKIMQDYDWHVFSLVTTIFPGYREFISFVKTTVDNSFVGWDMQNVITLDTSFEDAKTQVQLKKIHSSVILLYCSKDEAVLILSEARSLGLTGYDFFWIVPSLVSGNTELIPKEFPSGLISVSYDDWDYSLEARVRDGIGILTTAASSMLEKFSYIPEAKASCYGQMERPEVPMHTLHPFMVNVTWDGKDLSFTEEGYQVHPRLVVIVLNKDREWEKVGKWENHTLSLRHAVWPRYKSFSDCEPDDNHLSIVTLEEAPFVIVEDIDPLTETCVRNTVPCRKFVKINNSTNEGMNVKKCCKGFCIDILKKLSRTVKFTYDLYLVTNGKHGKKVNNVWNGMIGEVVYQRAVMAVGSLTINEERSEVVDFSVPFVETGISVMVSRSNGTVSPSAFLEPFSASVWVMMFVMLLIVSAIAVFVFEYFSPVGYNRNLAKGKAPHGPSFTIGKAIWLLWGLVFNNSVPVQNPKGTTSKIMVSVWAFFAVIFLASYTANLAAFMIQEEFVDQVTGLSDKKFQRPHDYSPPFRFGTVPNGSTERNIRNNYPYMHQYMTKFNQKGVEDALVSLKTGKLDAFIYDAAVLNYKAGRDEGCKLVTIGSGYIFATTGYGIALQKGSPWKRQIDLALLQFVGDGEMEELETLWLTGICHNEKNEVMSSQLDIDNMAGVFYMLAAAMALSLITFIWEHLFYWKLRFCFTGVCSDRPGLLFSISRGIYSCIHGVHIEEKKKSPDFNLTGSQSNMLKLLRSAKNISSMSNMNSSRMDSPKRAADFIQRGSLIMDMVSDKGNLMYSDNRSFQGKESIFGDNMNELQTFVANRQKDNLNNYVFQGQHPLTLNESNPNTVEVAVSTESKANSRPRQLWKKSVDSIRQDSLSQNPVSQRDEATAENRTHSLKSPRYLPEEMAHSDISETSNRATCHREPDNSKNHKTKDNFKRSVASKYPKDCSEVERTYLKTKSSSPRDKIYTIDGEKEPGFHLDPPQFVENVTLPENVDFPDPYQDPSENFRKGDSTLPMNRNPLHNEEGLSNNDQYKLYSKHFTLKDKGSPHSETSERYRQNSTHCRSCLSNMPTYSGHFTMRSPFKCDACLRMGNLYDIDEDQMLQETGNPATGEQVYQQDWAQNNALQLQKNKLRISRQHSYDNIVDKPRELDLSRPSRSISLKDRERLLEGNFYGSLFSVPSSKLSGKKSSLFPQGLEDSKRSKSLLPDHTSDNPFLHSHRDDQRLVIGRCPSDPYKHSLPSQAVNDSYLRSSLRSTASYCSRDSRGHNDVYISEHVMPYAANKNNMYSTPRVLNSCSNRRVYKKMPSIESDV
Test: Antagonist activity at recombinant GluN1/GluN2A receptor (unknown origin) expressed in Xenopus laevis oocytes assessed as inhibition of glycine/glutamate-induced inward current at -70mV by two-electrode voltage clamp assay
All values: log10 IC50 [nM].

COc1ccccc1CNCCCCCNCCCCCCNCCCCCNCc1ccccc1OC = 2.50
COc1ccccc1CNCCCCCCCCNCCCCCCNCCCCCCCCNCc1ccccc1OC = 2.41
c1ccc(C(CNCCCCCCNCCCCCCCCCCCCNCCCCCCNCC(c2ccccc2)c2ccccc2)c2ccccc2)cc1 = 0.62
c1ccc(C(CNCCCCCCNCCCCCCCCNCCCCCCNCC(c2ccccc2)c2ccccc2)c2ccccc2)cc1 = 1.04

INPUT: Quick one: log10 IC50 for `COc1ccccc1CNCCCCCNCCCCCCCCCCNCCCCCNCc1ccccc1OC` ?
OUTPUT: 1.95

INPUT: Quick one: log10 IC50 for `COc1ccccc1CNCCCCCCNCCCCCCCCNCCCCCCNCc1ccccc1OC` ?
OUTPUT: 2.14
